- Test system: Aureobasidium pullulans IFO 6353
- protocol_description: Antimold MIC against eumycetes, broth dilution
- Assay type: cell-based
- measurement_conditions: Sabouraud medium, 30° C., 7 days
measurement_name: MIC
Express the reported value numerically, then name its unit.

### Prompt Lab note: record MIC of CCCCCCCC[n+]1cccc(COCCCCOCc2ccc[n+](CCCCCCCC)c2)c1.[Br-].[Br-] tested on Aureobasidium pullulans IFO 6353.
### Response 3.6 µM

### Prompt Lab note: record MIC of CCCCCCCC[n+]1ccc(COCCCCOCc2cc[n+](CCCCCCCC)cc2)cc1.[Br-].[Br-] tested on Aureobasidium pullulans IFO 6353.
### Response 3.6 µM

### Prompt Lab note: record MIC of CCCCCCCCCC[n+]1cccc(COCCCCOCc2ccc[n+](CCCCCCCCCC)c2)c1.[Br-].[Br-] tested on Aureobasidium pullulans IFO 6353.
### Response 1.8 µM

### Prompt Lab note: record MIC of c1ccc2[nH]c(-c3cscn3)nc2c1 [TBZ, 2-(4′-thiozolyl)benzimidazole, reference compound] tested on Aureobasidium pullulans IFO 6353.
### Response 0.8 µM

====

- System: Cladosporium cladosporioides IFO 6348
- protocol_description: Antimold MIC against eumycetes, broth dilution
- Assay type: cell-based
- measurement_conditions: Sabouraud medium, 30° C., 7 days
measurement_name: MIC (µM)
All answers are understood in µM, so give the number only.

Study these solved cases before continuing.
| compound | system_tested | measurement_name | assay_result |
| --- | --- | --- | --- |
| CCCCCCCCCC[n+]1cccc(COCCCCOCc2ccc[n+](CCCCCCCCCC)c2)c1.[Br-].[Br-] | Cladosporium cladosporioides IFO 6348 | MIC | 0.9 |
| c1ccc2[nH]c(-c3cscn3)nc2c1 [TBZ, 2-(4′-thiozolyl)benzimidazole, reference compound] | Cladosporium cladosporioides IFO 6348 | MIC | 3.2 |
| CCCCCCCC[n+]1ccc(COCCCCOCc2cc[n+](CCCCCCCC)cc2)cc1.[Br-].[Br-] | Cladosporium cladosporioides IFO 6348 | MIC | 3.6 |

### Prompt Kindly indicate its recorded MIC. Item: CCCCCCCC[n+]1cccc(COCCCCOCc2ccc[n+](CCCCCCCC)c2)c1.[Br-].[Br-]
### Response 3.6

====

- Test system: Penicillium funiculosum IFO 6345
- protocol_description: Antimold MIC against eumycetes, broth dilution
- Format: cell-based
- measurement_conditions: Sabouraud medium, 30° C., 7 days
Reported MIC values follow for various compounds
All answers are understood in µM, so give the number only.

Study these solved cases before continuing.
| compound | units_label | assay_result |
| --- | --- | --- |
| c1ccc2[nH]c(-c3cscn3)nc2c1 [TBZ, 2-(4′-thiozolyl)benzimidazole, reference compound] | µM | 1.6 |
| CCCCCCCC[n+]1cccc(COCCCCOCc2ccc[n+](CCCCCCCC)c2)c1.[Br-].[Br-] | µM | 3.6 |
| CCCCCCCC[n+]1ccc(COCCCCOCc2cc[n+](CCCCCCCC)cc2)cc1.[Br-].[Br-] | µM | 3.6 |

### Prompt Kindly indicate its recorded MIC. Item: CCCCCCCCCC[n+]1cccc(COCCCCOCc2ccc[n+](CCCCCCCCCC)c2)c1.[Br-].[Br-]
### Response 1.8
